protocolDescription: Quantitative High-Throughput drug screen in 47 multiple myeloma cell lines against the NCATS MIPE library collection: AMO1_DSMZ cell viability assay (AID 1918927; further: nearly all actives have a fitted effect of over 30% in size)
assayContext: AMO1 myeloma cells viability, CellTiter-Glo ATP luminescence, 48 h; series mostly up to 45.8 µM
Records with an inconclusive call do not appear. Active and inactive are the calls of the source. The call rests on the fitted dose curve; in most records, active means well fitted cell-killing curve with a large enough effect; inconclusive means small, poorly fitted or top-dose-only effect, or effect the other way; inactive means no such curve, though single readings can be large or run the other way.
Return exactly one item of active, inactive

Answered examples (2):
compound=COc1cc2nccc(Oc3ccc(NC(=O)Nc4cc(C)on4)c(Cl)c3)c2cc1OC classification=active
compound=CC[C@H](CC#N)OC(=O)N[C@@H](C)c1cccc(NC(=O)Nc2ccc(-c3cnco3)c(OC)c2)c1 classification=active

Fill in: this test's call for O=C1CCCC(=O)C1C(=O)c1ccc(C(F)(F)F)cc1[N+](=O)[O-] is ___
inactive

Fill in: this test's call for Cc1cc(CS(=O)(=O)c2ccccc2)cc(OCc2ccc(CN3CCC[C@H]3CO)cc2)c1 is ___
active
